- Tested on: Coagulase negative Staphylococcus
- run_description: Antibiotic susceptibility of coagulase negative Staphylococcus strains
- Format: cell-based
- experimental_setup: CNS2 (Coagulase negative Staphylococcus)
property_name: Antibiotic susceptibility

Examples with their reported Antibiotic susceptibility follow.
structure_smiles_string	Antibiotic susceptibility
C[C@H]1COc2c(N3CCN(C)CC3)c(F)cc3c(=O)c(C(=O)O)cn1c23	R
CC(=O)NC[C@H]1CN(c2ccc(N3CCOCC3)c(F)c2)C(=O)O1	S
CO[C@H]1/C=C/O[C@@]2(C)Oc3c(C)c(O)c4c(O)c(c(/C=N/N5CCN(C)CC5)c(O)c4c3C2=O)NC(=O)/C(C)=C\C=C\[C@H](C)[C@H](O)[C@@H](C)[C@@H](O)[C@@H](C)[C@H](OC(C)=O)[C@@H]1C	S
C[C@H]1c2cccc(O)c2C(=O)C2=C(O)[C@]3(O)C(=O)C(C(N)=O)=C(O)[C@@H](N(C)C)[C@@H]3[C@@H](O)[C@@H]21	S
CC[C@H]1OC(=O)[C@H](C)[C@@H](O[C@H]2C[C@@](C)(OC)[C@@H](O)[C@H](C)O2)[C@H](C)[C@@H](O[C@@H]2O[C@H](C)C[C@H](N(C)C)[C@H]2O)[C@](C)(O)C[C@@H](C)C(=O)[C@H](C)[C@@H](O)[C@]1(C)O	S

Input line: # query: Antibiotic susceptibility of entry CN(C)c1cc(NC(=O)CNC(C)(C)C)c(O)c2c1C[C@H]1C[C@H]3[C@H](N(C)C)C(O)=C(C(N)=O)C(=O)[C@@]3(O)C(O)=C1C2=O
Output line: S

Input line: Next molecule up: CN[C@H](CC(C)C)C(=O)N[C@H]1C(=O)N[C@@H](CC(N)=O)C(=O)N[C@H]2C(=O)N[C@H]3C(=O)N[C@H](C(=O)N[C@H](C(=O)O)c4cc(O)cc(O)c4-c4cc3ccc4O)[C@H](O)c3ccc(c(Cl)c3)Oc3cc2cc(c3O[C@@H]2O[C@H](CO)[C@@H](O)[C@H](O)[C@H]2O[C@H]2C[C@](C)(N)[C@H](O)[C@H](C)O2)Oc2ccc(cc2Cl)[C@H]1O
Output line: S

Input line: Next molecule up: COc1c(N2C[C@@H]3CCCN[C@@H]3C2)c(F)cc2c(=O)c(C(=O)O)cn(C3CC3)c12
Output line: R

Input line: Next molecule up: CN(C)[C@@H]1C(O)=C(C(N)=O)C(=O)[C@@]2(O)C(O)=C3C(=O)c4c(O)cccc4[C@@](C)(O)[C@H]3C[C@@H]12
Output line: S

Input line: Next molecule up: O=C1CN(/N=C/c2ccc([N+](=O)[O-])o2)C(=O)N1
Output line: S

###

- System: S. aureus ATCC strains and MRSA
- Format: cell-based, Staphylococcus aureus
- experimental_setup: Sa20 (MRSA)

compound	tested_on	Antibiotic susceptibility
CN[C@H](CC(C)C)C(=O)N[C@H]1C(=O)N[C@@H](CC(N)=O)C(=O)N[C@H]2C(=O)N[C@H]3C(=O)N[C@H](C(=O)N[C@H](C(=O)O)c4cc(O)cc(O)c4-c4cc3ccc4O)[C@H](O)c3ccc(c(Cl)c3)Oc3cc2cc(c3O[C@@H]2O[C@H](CO)[C@@H](O)[C@H](O)[C@H]2O[C@H]2C[C@](C)(N)[C@H](O)[C@H](C)O2)Oc2ccc(cc2Cl)[C@H]1O [VAN, vancomycin]	S. aureus ATCC strains and MRSA	S
CO[C@H]1/C=C/O[C@@]2(C)Oc3c(C)c(O)c4c(O)c(c(/C=N/N5CCN(C)CC5)c(O)c4c3C2=O)NC(=O)/C(C)=C\C=C\[C@H](C)[C@H](O)[C@@H](C)[C@@H](O)[C@@H](C)[C@H](OC(C)=O)[C@@H]1C [RIF, Rifampin]	S. aureus ATCC strains and MRSA	S

###

- run_description: Cytotoxicity assay (CC50), MTS
- Format: cell-based, human
- experimental_setup: human, HEPDES19 cells
property_name: CC50

Input line: # query: CC50 of entry CC(C)c1ccc(O)c(=O)c(O)c1
Output line: < 50 µM

###

// MIC80 lookup, one value per entry
- Tested on: Staphylococcus saprophyticus (ATCC BAA-750)
- run_description: MIC80 on S. saprophyticus
- Format: cell-based
- experimental_setup: Staphylococcus saprophyticus, ATCCBAA750; S. saprophyticus ATCC BAA-750; read-out: MIC80 S. sapro
Structures can show the parent of a compound that is named as a salt.

Examples with their reported MIC80 follow.
compound	result
Cc1cc(O)c(=O)c(O)cc1C(=O)c1cccs1	29.6 µM
O=c1c(O)ccc(-c2ccccc2)cc1O	19.8 µM
Cc1ccc(C(=O)Sc2cccccc2=O)cc1	44.4 µM
O=C(Oc1cccccc1=O)c1ccc(Cl)cc1	9.2 µM

Input line: # query: MIC80 of entry CC(C)c1ccc(O)c(=O)c(O)c1
Output line: 29.6 µM

Input line: Next compound up: O=C(Oc1cccccc1=O)c1ccccc1
Output line: 10.3 µM

Input line: Next compound up: O=c1cc(-c2ccccc2)c2cccnc2n1O
Output line: 17.8 µM

Input line: Next compound up: Cc1cc(O)c(=O)c(O)cc1C(=O)C1CC1
Output line: 44.4 µM

Input line: Next compound up: O=c1cc(Cc2ccc(Br)cc2)c2cccnc2n1O [Compound 149, hydrobromide]
Output line: 2.5 µM

###

- System: S. aureus ATCC strains and MRSA
- Format: cell-based, Staphylococcus aureus
- experimental_setup: Sa19 (MRSA)
property_name: Antibiotic susceptibility

Examples with their reported Antibiotic susceptibility follow.
structure_smiles_string	result
O=C(O)c1cn(C2CC2)c2cc(N3CCNCC3)c(F)cc2c1=O	S
Cc1onc(-c2ccccc2)c1C(=O)N[C@@H]1C(=O)N2[C@@H]1SC(C)(C)[C@@H]2C(=O)O	R
CCC[C@@H]1C[C@@H](C(=O)N[C@@H]([C@H]2O[C@H](SC)[C@H](O)[C@@H](O)[C@H]2O)[C@H](C)Cl)N(C)C1	R
CCCCCCCCCC(=O)N[C@@H](Cc1c[nH]c2ccccc12)C(=O)N[C@H](CC(N)=O)C(=O)N[C@@H](CC(=O)O)C(=O)N[C@@H]1C(=O)NCC(=O)N[C@@H](CCCN)C(=O)N[C@@H](CC(=O)O)C(=O)N[C@H](C)C(=O)N[C@@H](CC(=O)O)C(=O)NCC(=O)N[C@H](CO)C(=O)N[C@@H]([C@H](C)CC(=O)O)C(=O)N[C@@H](CC(=O)c2ccccc2N)C(=O)O[C@@H]1C	S

Next molecule, please.
Input line: # query: Antibiotic susceptibility of entry CN(C)[C@@H]1C(O)=C(C(N)=O)C(=O)[C@@]2(O)C(O)=C3C(=O)c4c(O)cccc4[C@@](C)(O)[C@H]3C[C@@H]12
Output line: S

###

- System: MDR E. coli
- Assay type: cell-based
- experimental_setup: Ec2 (E. coli)
property_name: Antibiotic susceptibility

structure_smiles_string	result
C[C@@H](O)[C@H]1C(=O)N2C(C(=O)O)=C(S[C@@H]3CN[C@H](C(=O)N(C)C)C3)[C@H](C)[C@H]12	S
C[C@@H](O)[C@H]1C(=O)N2C(C(=O)O)=C(S[C@@H]3CN[C@H](C(=O)Nc4cccc(C(=O)O)c4)C3)[C@H](C)[C@H]12	S
CC1(C)S[C@@H]2[C@H](NC(=O)[C@H](N)c3ccccc3)C(=O)N2[C@H]1C(=O)O	R
Cc1nnc(SCC2=C(C(=O)O)N3C(=O)[C@@H](NC(=O)Cn4cnnn4)[C@H]3SC2)s1	R

###

- System: S. aureus ATCC strains and MRSA
- Type: cell-based, Staphylococcus aureus
- experimental_setup: Sa17 (MRSA)
property_name: Antibiotic susceptibility

Examples with their reported Antibiotic susceptibility follow.
structure_smiles_string	Antibiotic susceptibility
O=C1CN(/N=C/c2ccc([N+](=O)[O-])o2)C(=O)N1	S
CC(=O)NC[C@H]1CN(c2ccc(N3CCOCC3)c(F)c2)C(=O)O1	S
CN(C)c1cc(NC(=O)CNC(C)(C)C)c(O)c2c1C[C@H]1C[C@H]3[C@H](N(C)C)C(O)=C(C(N)=O)C(=O)[C@@]3(O)C(O)=C1C2=O	S
CCCCCCCCCC(=O)N[C@@H](Cc1c[nH]c2ccccc12)C(=O)N[C@H](CC(N)=O)C(=O)N[C@@H](CC(=O)O)C(=O)N[C@@H]1C(=O)NCC(=O)N[C@@H](CCCN)C(=O)N[C@@H](CC(=O)O)C(=O)N[C@H](C)C(=O)N[C@@H](CC(=O)O)C(=O)NCC(=O)N[C@H](CO)C(=O)N[C@@H]([C@H](C)CC(=O)O)C(=O)N[C@@H](CC(=O)c2ccccc2N)C(=O)O[C@@H]1C	S
CO[C@H]1/C=C/O[C@@]2(C)Oc3c(C)c(O)c4c(O)c(c(/C=N/N5CCN(C)CC5)c(O)c4c3C2=O)NC(=O)/C(C)=C\C=C\[C@H](C)[C@H](O)[C@@H](C)[C@@H](O)[C@@H](C)[C@H](OC(C)=O)[C@@H]1C	S
C[C@H]1COc2c(N3CCN(C)CC3)c(F)cc3c(=O)c(C(=O)O)cn1c23	R

Input line: Return Antibiotic susceptibility measured with S. aureus ATCC strains and MRSA given this compound: C[C@H]1c2cccc(O)c2C(=O)C2=C(O)[C@]3(O)C(=O)C(C(N)=O)=C(O)[C@@H](N(C)C)[C@@H]3[C@@H](O)[C@@H]21
Output line: S

Input line: Next compound up: CN[C@H](CC(C)C)C(=O)N[C@H]1C(=O)N[C@@H](CC(N)=O)C(=O)N[C@H]2C(=O)N[C@H]3C(=O)N[C@H](C(=O)N[C@H](C(=O)O)c4cc(O)cc(O)c4-c4cc3ccc4O)[C@H](O)c3ccc(c(Cl)c3)Oc3cc2cc(c3O[C@@H]2O[C@H](CO)[C@@H](O)[C@H](O)[C@H]2O[C@H]2C[C@](C)(N)[C@H](O)[C@H](C)O2)Oc2ccc(cc2Cl)[C@H]1O
Output line: S

Input line: Next compound up: CCC[C@@H]1C[C@@H](C(=O)N[C@@H]([C@H]2O[C@H](SC)[C@H](O)[C@@H](O)[C@H]2O)[C@H](C)Cl)N(C)C1
Output line: S

Input line: Next compound up: COc1c(N2C[C@@H]3CCCN[C@@H]3C2)c(F)cc2c(=O)c(C(=O)O)cn(C3CC3)c12
Output line: R

Input line: Next compound up: Cc1onc(-c2ccccc2)c1C(=O)N[C@@H]1C(=O)N2[C@@H]1SC(C)(C)[C@@H]2C(=O)O
Output line: R
